Just for reference, paper PMC7998731 is where these values come from.

- measurement.description: Tissue distribution (tissue-to-plasma partition) in rats
- Format: in vivo
- measurement.conditions: male, Sprague-Dawley, rat; Liver; rats, oral administration (5 mg/kg); read-out: Kp (tissue to plasma AUC ratio)

input.smiles: COc1cc(OC)cc(N2CCN(C(=O)Nc3nc4cc(F)ccc4nc3OC)CC2)c1
Kp: 4.76

---

- measurement.description: Tissue distribution (tissue-to-plasma partition) in rats
- Format: in vivo
- measurement.conditions: male, Sprague-Dawley, rat, several tissues (range over tissues), intravenous, 5 mg/kg; range over tissues, PBPK input parameter, Determined; read-out: Tissue: Plasma partition coefficients
quantity.kind: Kp

input.smiles: COc1cc(OC)cc(N2CCN(C(=O)Nc3nc4cc(F)ccc4nc3OC)CC2)c1
observed.measurement: 0.649 to 21.7

---

- assayed.system: CYP3A4 (Homo sapiens, UniProt P08684)
- Sequence (P08684 whole entry): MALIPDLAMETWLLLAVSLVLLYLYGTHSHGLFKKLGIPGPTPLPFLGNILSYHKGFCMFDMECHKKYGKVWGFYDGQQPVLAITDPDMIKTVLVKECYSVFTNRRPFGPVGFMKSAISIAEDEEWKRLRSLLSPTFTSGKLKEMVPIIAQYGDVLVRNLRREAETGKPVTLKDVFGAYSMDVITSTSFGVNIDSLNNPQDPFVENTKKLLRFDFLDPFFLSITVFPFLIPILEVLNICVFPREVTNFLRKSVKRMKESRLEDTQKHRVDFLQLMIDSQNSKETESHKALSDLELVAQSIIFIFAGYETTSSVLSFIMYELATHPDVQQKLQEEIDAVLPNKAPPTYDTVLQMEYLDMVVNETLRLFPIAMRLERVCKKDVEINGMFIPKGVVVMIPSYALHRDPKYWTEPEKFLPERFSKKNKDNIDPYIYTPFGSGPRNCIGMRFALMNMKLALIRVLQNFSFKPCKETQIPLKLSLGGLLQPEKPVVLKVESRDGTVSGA
- measurement.description: CYP inhibition, Vivid CYP450 screening kit
- measurement.conditions: human recombinant CYP3A4, 0.59 to 10 μM

input.smiles: COc1cc(OC)cc(N2CCN(C(=O)Nc3nc4cc(F)ccc4nc3OC)CC2)c1
IC50: 4.66 µM

---

- measurement.description: Transport of supinoxin in Caco-2 cells (bidirectional permeability)
- Type: in vitro ADME
- measurement.conditions: human; Caco-2 cell monolayers; supinoxin 1 µM; read-out: basolateral to apical apparent permeability coefficient
# maps each entry to its Papp B→A at 120 min, 1 µM

compound: COCCc1ccc(OCC(O)CNC(C)C)cc1 (centres unmarked) [metoprolol, reference compound]
units.label: ×10⁻⁶ cm/s
Papp B→A at 120 min, 1 µM: 15.7
//
compound: COc1cc(OC)cc(N2CCN(C(=O)Nc3nc4cc(F)ccc4nc3OC)CC2)c1 [supinoxin]
units.label: ×10⁻⁶ cm/s
Papp B→A at 120 min, 1 µM: 22.6

---

- measurement.description: In vivo pharmacokinetic study, oral administration to rats
- measurement.conditions: male, Sprague-Dawley, rat, plasma; rats, oral, range over doses 0.5–5 mg/kg; read-out: absolute oral bioavailability

compound: COc1cc(OC)cc(N2CCN(C(=O)Nc3nc4cc(F)ccc4nc3OC)CC2)c1 [supinoxin]
bioavailability: 56.9 to 57.4%

---

- measurement.description: Tissue distribution (tissue-to-plasma partition) in rats
- Format: in vivo
- measurement.conditions: male, Sprague-Dawley, rat; Plasma; rats, oral administration (5 mg/kg); read-out: Kp (tissue to plasma AUC ratio)

compound: COc1cc(OC)cc(N2CCN(C(=O)Nc3nc4cc(F)ccc4nc3OC)CC2)c1 [supinoxin]
Kp: 1

---

- measurement.description: Tissue distribution (tissue-to-plasma partition) in rats
- Format: in vivo
- measurement.conditions: male, Sprague-Dawley, rat, muscle; Muscles; rats, oral administration (5 mg/kg), mean; read-out: AUC0–24h
quantity.kind: AUC(0-t) (ng·h/mL)

compound: COc1cc(OC)cc(N2CCN(C(=O)Nc3nc4cc(F)ccc4nc3OC)CC2)c1 [supinoxin]
observed.measurement: 6130

---

- assayed.system: CYP1A2 (Homo sapiens)
- Construct: purchased Thermo Fisher Scientific
- Sequence (P05177 whole entry): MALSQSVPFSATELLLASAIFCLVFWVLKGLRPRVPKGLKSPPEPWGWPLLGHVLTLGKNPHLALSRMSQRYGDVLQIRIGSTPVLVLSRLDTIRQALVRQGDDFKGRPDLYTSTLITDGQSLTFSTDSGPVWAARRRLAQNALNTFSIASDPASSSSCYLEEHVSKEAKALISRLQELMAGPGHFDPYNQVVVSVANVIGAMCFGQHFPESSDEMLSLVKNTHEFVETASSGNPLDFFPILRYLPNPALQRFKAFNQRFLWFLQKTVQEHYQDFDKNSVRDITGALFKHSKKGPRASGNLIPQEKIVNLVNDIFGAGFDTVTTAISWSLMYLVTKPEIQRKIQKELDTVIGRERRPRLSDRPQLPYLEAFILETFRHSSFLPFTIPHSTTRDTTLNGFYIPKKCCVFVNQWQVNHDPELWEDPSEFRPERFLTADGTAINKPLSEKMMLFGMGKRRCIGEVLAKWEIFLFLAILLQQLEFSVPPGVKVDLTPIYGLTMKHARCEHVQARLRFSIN
- measurement.description: CYP inhibition, Vivid CYP450 screening kit
- Assay type: in vitro ADME
- measurement.conditions: recombinant human CYP1A2 (P450 Baculosomes), probe Vivid substrate; human recombinant CYP1A2, 10 µM; read-out: inhibition compared to the vehicle control

molecule: COc1cc(OC)cc(N2CCN(C(=O)Nc3nc4cc(F)ccc4nc3OC)CC2)c1 [supinoxin]
inhibition at 30 min, 10 µM / %: 5.9
